Experiment: Cmax in overnight fasted Sprague-Dawley rat at 1 mg/kg, po or 1 mg/kg, iv measured upto 48 hrs by LC/MS/MS analysis
Assay type: ADME, organism-based
Set-up: time < 48 hrs, dose 1 mg/kg, route po
Conditions: in vivo
Readout Type: Cmax (nM)
Please respond with the number in nM and leave the unit unwritten.

Identify measured Cmax associated with "CCc1cccc(CC)c1-n1c(-c2ccn(C)n2)nc(=O)c(C(=O)N2CC[C@@H](c3ncc(Cl)cc3F)C2)c1O"
2200

###

Experiment: Oral bioavailability in dog at 1 mg/kg by LC/MS/MS analysis
Assay type: ADME, organism-based, Canis lupus familiaris
Settings: in vivo
Readout Type: bioavailability (%)
Write the value in % as a bare number.

Quote bioavailability reported for "CCc1cccc(CC)c1-n1c(-c2ccn(C)n2)nc(=O)c(C(=O)N2CC[C@@H](c3ncc(Cl)cc3F)C2)c1O" please.
76

###

Biological target: Apelin receptor (Homo sapiens, UniProt P35414)
Sequence (P35414 whole entry): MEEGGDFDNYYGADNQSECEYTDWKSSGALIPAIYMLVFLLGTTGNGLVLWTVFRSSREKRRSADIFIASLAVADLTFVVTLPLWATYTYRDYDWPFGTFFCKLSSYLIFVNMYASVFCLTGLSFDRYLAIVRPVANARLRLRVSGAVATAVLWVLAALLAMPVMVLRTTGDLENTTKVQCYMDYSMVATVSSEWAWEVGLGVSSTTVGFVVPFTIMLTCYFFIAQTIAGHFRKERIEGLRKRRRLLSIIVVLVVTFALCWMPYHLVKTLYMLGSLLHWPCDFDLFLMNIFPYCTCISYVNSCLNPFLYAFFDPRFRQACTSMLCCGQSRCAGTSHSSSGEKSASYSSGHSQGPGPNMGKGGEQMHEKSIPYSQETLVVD
Assay: Agonist activity at human APJ expressed in HEK293 cells assessed as inhibition of forskolin-stimulated cAMP production incubated for 60 mins by fluorescence based analysis
Readout Type: EC50

Name the recorded EC50 of the item "CCOCc1nc(=O)c(C(=O)N2CC[C@H](c3ccccc3)C2)c(O)n1-c1c(OC)cccc1OC" in your answer.
400 pM

###

Experiment: Cmax in dog at 1 mg/kg, po or 1 mg/kg, iv by LC/MS/MS analysis
Type: ADME, organism-based, Canis lupus familiaris
Design: dose 1 mg/kg, route po
Conditions: in vivo
Readout Type: Cmax (µM)
Kindly answer with a numeric value in µM, unit omitted.

Given the compound "CCc1cccc(CC)c1-n1c(-c2ccn(C)n2)nc(=O)c(C(=O)N2CC[C@@H](c3ncc(Cl)cc3F)C2)c1O" , write its reported Cmax.
6.5

###

Experiment: Drug excretion in Sprague-Dawley rat urine at 1 mg/kg, iv
Type: ADME, organism-based
Conditions: read-out: Drug excretion
Readout Type: dose excreted (%)
API: value field is a number in %; no unit string.

Retrieve dose excreted measured for "CCc1cccc(CC)c1-n1c(-c2ccn(C)n2)nc(=O)c(C(=O)N2CC[C@@H](c3ncc(Cl)cc3F)C2)c1O" and print it.
4

###

Assay: Cmax in overnight fasted cynomolgus monkey at 3 mg/kg, po or 1 mg/kg, iv measured upto 72 hrs by LC/MS/MS analysis
Assay type: ADME, organism-based, Macaca fascicularis
Set-up: time < 72 hrs, dose 3 mg/kg, route po
Conditions: in vivo
Readout Type: Cmax (µM)
The reply should be a number in µM, with the unit left off.

// fetch Cmax given entry "CCc1cccc(CC)c1-n1c(-c2ccn(C)n2)nc(=O)c(C(=O)N2CC[C@@H](c3ncc(Cl)cc3F)C2)c1O"
1.4

###

Experiment: AUC (0 to 24hrs) in overnight fasted cynomolgus monkey at 3 mg/kg, po or 1 mg/kg, iv measured upto 72 hrs by LC/MS/MS analysis
Type: ADME, organism-based, Macaca fascicularis
Set-up: time < 72 hrs, dose 3 mg/kg, route po
Conditions: in vivo
Readout Type: AUC(0-t) at 72 h
Give me the value, and tack the unit on after it.

Output AUC(0-t) at 72 h of "CCc1cccc(CC)c1-n1c(-c2ccn(C)n2)nc(=O)c(C(=O)N2CC[C@@H](c3ncc(Cl)cc3F)C2)c1O"
2.5 µM·h

###

Test: Oral bioavailability in overnight fasted cynomolgus monkey at 3 mg/kg measured upto 72 hrs by LC/MS/MS analysis
Assay type: ADME, organism-based, Macaca fascicularis
Details: in vivo
Readout Type: bioavailability

Give bioavailability for the following compound: "CCc1cccc(CC)c1-n1c(-c2ccn(C)n2)nc(=O)c(C(=O)N2CC[C@@H](c3ncc(Cl)cc3F)C2)c1O"
27%

###

Assay: Drug excretion in dog urine at 1 mg/kg, iv
Assay type: ADME, organism-based, Canis lupus familiaris
Details: read-out: Drug excretion
Readout Type: dose excreted

Tell me measured dose excreted for "CCc1cccc(CC)c1-n1c(-c2ccn(C)n2)nc(=O)c(C(=O)N2CC[C@@H](c3ncc(Cl)cc3F)C2)c1O" please.
< 4%
